Quick reference: apparent KD of K4 kissing-loop reporter of the listed items.
System: K4 kissing-loop RNA reporter
Experimental Details: apparent KD of K4 kissing-loop reporter; higher = weaker reporter binding
Setup Conditions: Eterna round: R107; input ligand: arginine 13.2 mM

Residue Sequence: AGGUUUUGAUUAGGAUAUGCACUGAGGAGGAGAAUAUAGUGAUGUUAUAUAAGAGGAAUUAGUAGAGUAGAAGGGAUUGAGGUUU [SSFMNB.T]
Test Target: K4 kissing-loop RNA reporter
apparent KD of K4 kissing-loop reporter: 167 nM
--
Residue Sequence: GGCGGCUGCGCGGAAGCGCAGCCGGCCGAUACCAGCGCGACGGCGCGCCCUUGGCAGCGGCGCCGAGUGAUGUUCGGCCUGCCGU [#2 Same State - Theophylline A Attempt #21 (HarryS)]
Test Target: K4 kissing-loop RNA reporter
apparent KD of K4 kissing-loop reporter: 82.2 nM
--
Residue Sequence: AGACUACCACACUGUCAAUAGACAGUGAGCUAGGAUAUGCUGAUAAGCAGAAGGAGUGAUGUUCCUCGGUAGUCAAUAAAAUAAU [FmnAX 13 G29+C67]
Test Target: K4 kissing-loop RNA reporter
apparent KD of K4 kissing-loop reporter: 357 nM
--
Residue Sequence: CGCAAUAUUACGGAGUGAUGUUUCGUAGUCCGAGGACCGGUACGGCCGCCACUCGCUGGCGUUGGCCCAUAGACCGACGGAAUCG [theeternabot_sameState_KL_Trp_A_39]
Test Target: K4 kissing-loop RNA reporter
apparent KD of K4 kissing-loop reporter: 252 nM
--
Residue Sequence: GGGAACUCUUACGAUACCAGCCGGAGUGAUGUUCCGCGCUUGGACGUAGUAACCCGCACCGGCCCUUGGCAGCGUGGAUCUUAUA [Esbedi]
Test Target: K4 kissing-loop RNA reporter
apparent KD of K4 kissing-loop reporter: 73.5 nM
--
Residue Sequence: GGUGACGGCCAGGAGUGAUGUAUAGAAUAGCGAGGACCGGUACGGCCGCCACUCGUGAAGAAAAGGGAGUGAUGUUCCGUAAUGG [Kazoo B]
Test Target: K4 kissing-loop RNA reporter;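 further: bound reporter read as fluorescence of individual clusters on recovered sequencing chips by microscopy, with normalized cluster intensities fitted with a binding model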
apparent KD of K4 kissing-loop reporter: 284 nM

###

System: MS2 coat protein
Experimental Details: apparent KD of MS2 coat protein; designed switch direction (-1 OFF switch, 1 ON switch): -1; higher = weaker reporter binding
Setup Conditions: Eterna round: R95; input ligand: microRNA oligo, concentration not stated
In this section we review reported apparent KD of MS2 coat protein values for a set of sequences.
Measured Metric: apparent KD of MS2 coat protein

Residue Sequence: CUUCGACAUGAGGAUCACCCAUGUCAGGAUAUUGUGUAUCGGGUUUUUUACGGAAAGGCAAGAAGGGAUGUGUG [LRO-Excl1-07] (puzzle: Exclusion 1)
Test Target: MS2 coat protein
Measured Metric: apparent KD of MS2 coat protein
Result: 25.4 nM
//
Residue Sequence: AGAUGUAGAUACCGAUCCUACAUGAGGAUCACCCAUGUAGCUAGACGUGCCCGCGUCGCUCGUCAGACUACCAGUAG [salish99_TOv1_r3_090] (puzzle: Sensor v3, turn-off variant 1)
Test Target: MS2 coat protein
Measured Metric: apparent KD of MS2 coat protein
Result: 248 nM
//
Residue Sequence: GAUGAGGUAGGAUAUACGAUAAUAUAGGGUAGAUAUAUAACACAUGAGGAUCACCCAUGUAGAAGGACCAGUAC [Mat - Exclusion 2 - Mod of my Tesla design - D69] (puzzle: Exclusion 2)
Test Target: MS2 coat protein
Measured Metric: apparent KD of MS2 coat protein
Result: 36.4 nM
//
Residue Sequence: GGUUGGCGAGGAUAUACAUGAGGAUCACCCAUGUGAGAGAAAGAAGUGAGGAAGAAAAGUAGAAGGCGCUGACG [salish99_ex3_r3_005] (puzzle: Exclusion 3)
Test Target: MS2 coat protein
Measured Metric: apparent KD of MS2 coat protein
Result: 196 nM
//
Residue Sequence: GUAGAGUAAGGAUAUUGUGAAUAGGAUAGAAUGGUUAGAAGCAAGAAGGUACAUGAGGAUCACCCAUGUAAUGU [Excluse me!!!! 25 - Jieux - Exclusion 4] (puzzle: Exclusion 4)
Test Target: MS2 coat protein
Measured Metric: apparent KD of MS2 coat protein
Result: 23.1 nM
//
Residue Sequence: CGUGCGUAUGUGAGGAUAUGCUGGUCCUUGGAUCAGCAGAAGGCACAUGAGGAUCACCCAUGUGGUGUCGUACU [salish99_Bmod_Ex4_017] (puzzle: Brourd's mod of Exclusion 4)
Test Target: MS2 coat protein
Measured Metric: apparent KD of MS2 coat protein
Result: 161 nM
//
Residue Sequence: GGAUCGAAAGUGAGGAUAUACCACUGGAUACAGUGGUAGAAGGCACAUGAGGAUCACCCAUGUCCUUACGAUCC [Fiskers BMX 4 - 48] (puzzle: Brourd's mod of Exclusion 4)
Test Target: MS2 coat protein
Measured Metric: apparent KD of MS2 coat protein
Result: 20.5 nM
//
Residue Sequence: GGUUGGCGAGGAUAUACAUGAGGAUCACCCAUGUGAGAGAAAAAAGUGAGGAAGCAAAGUAGAAGGCGCUGACG [salish99_ex3_r3_034] (puzzle: Exclusion 3)
Test Target: MS2 coat protein
Measured Metric: apparent KD of MS2 coat protein
Result: 42.8 nM
//
Residue Sequence: CAUUACUGCAGGCUUUGGGACAUGAGGAUCACCCAUGUUCGUCUUAUUGAUCUAGGUACGCUGACGUACCUAGAUCU [JL-sv1-2.26 Brourd mod] (puzzle: Sensor v3, turn-off variant 1)
Test Target: MS2 coat protein
Measured Metric: apparent KD of MS2 coat protein
Result: 20.8 nM
//
Residue Sequence: CUGGUCCGAGGAUAUAUUAUGUGAUACAUGAGGAUCACCCAUGUUAUAUAAUGGAUGUAAAUAGAAGGCGGACUAG [JL-ex5-3.16] (puzzle: Exclusion 5)
Test Target: MS2 coat protein
Measured Metric: apparent KD of MS2 coat protein
Result: 43.2 nM
//
Residue Sequence: CCUCUACAUGAGGAUCACCCAUGUGAGGAUAUAAGAUUGCGGAUUCCGCACUACGGUCUUAGAAGGCGCGUGGA [Texebibia] (puzzle: Exclusion 1)
Test Target: MS2 coat protein
Measured Metric: apparent KD of MS2 coat protein
Result: 17.2 nM
//
Residue Sequence: UUAAACGGAGGAUAUACAUUUUUUUUAUUAUCCUCAUUAAAACAUGAGGAUCACCCAUGUAGAAGGCCGAAAUU [Mat - Exclusion 2 - Mod of Hog - D86] (puzzle: Exclusion 2)
Test Target: MS2 coat protein
Measured Metric: apparent KD of MS2 coat protein
Result: 91.5 nM
//
Residue Sequence: AAUUCUAGGGUCAGACGCACAAGCUUUUUGUUCGUUUUAACAUGAGGAUCACCCAUGUCUAGUGGAUCUGAUCGGGC [JL ViennaUCT Isreen mod 9] (puzzle: Sensor v3, turn-off variant 2)
Test Target: MS2 coat protein
Measured Metric: apparent KD of MS2 coat protein
Result: 71.4 nM
//
Residue Sequence: GGUACUAACACGAUAGUGUUAGUACUAUAAGCUUGUGUUACAUGAGGAUCACCCAUGUCCUCAUAAGCUCGUCUUGA [Mat - Sensor v3 - Turn-off var 2 - D91] (puzzle: Sensor v3, turn-off variant 2)
Test Target: MS2 coat protein
Measured Metric: apparent KD of MS2 coat protein
Result: 640 nM
//
Residue Sequence: AAUCCACAUGAGGAUCACCCAUGUGAGGAUAUGAUACUAUGUACUUCGGUACAUAGUAUCAGAAGGCACAGGUC [Ex1-3: 58] (puzzle: Exclusion 1)
Test Target: MS2 coat protein
Measured Metric: apparent KD of MS2 coat protein
Result: 25 nM
//
Residue Sequence: GCGAAAGCAAACAGGUGAAACAUGAGGAUCACCCAUGUCCUCAUUUGCUCGUCUUAUAAGCUAUGCGAAAGCAUAGC [Sensor 3, v1 - 8] (puzzle: Sensor v3, turn-off variant 1)
Test Target: MS2 coat protein
Measured Metric: apparent KD of MS2 coat protein
Result: 935 nM
//
Residue Sequence: GAGAUGUGAGGAUAUCUAGACCGCGGAAGAGCUGCGGUCCGAGAGAAGGCACAUGAGGAUCACCCAUGUGAUGA [Attere] (puzzle: Exclusion 4)
Test Target: MS2 coat protein
Measured Metric: apparent KD of MS2 coat protein
Result: 38.4 nM
//
Residue Sequence: CAUCUCGUAGGAUAUUCACAAAAGCACAUGAGGAUCACCCAUGUUAUCCGACAUGAUGCCGAAGAAGGACGAAAAC [Di] (puzzle: Exclusion 5)
Test Target: MS2 coat protein
Measured Metric: apparent KD of MS2 coat protein
Result: 79.8 nM
//
Residue Sequence: GGAUCGAGUGUGAGGAUAUGCUGGUCGUAAGAUCAGCAGAAGGCACAUGAGGAUCACCCAUGUGAAAACGGUCC [Mat - Exclusion 4 - JL Mod - D72] (puzzle: Brourd's mod of Exclusion 4)
Test Target: MS2 coat protein
Measured Metric: apparent KD of MS2 coat protein
Result: 25.6 nM
//
Residue Sequence: UUUAAUUUUUUUUUUUUACAAGCUUUUUGCUCGUCUUAUACAUGAGGAUCACCCAUGUGAAUGGGAAGUAAAUUAUC [JMF 51] (puzzle: Sensor v3, turn-off variant 2)
Test Target: MS2 coat protein
Measured Metric: apparent KD of MS2 coat protein
Result: 183 nM
